- Tested on: Hs578T complex spheroid growth, percent test/control
- EXPERIMENTAL_DETAILS: Anticancer human tumor Hs578T cell line growth inhibition [AhR]
- CONDITIONS_USED: second compound 3.16 µM; first compound 0.01 µM; stronger effect = lower value
// values below are reported viability, T/C
Respond with the bare value in %.

[[record]]
molecule = "Nc1ncn(C2CC(O)C(CO)O2)c(=O)n1 (stereo not drawn) + Cc1ccccc1N=Nc1ccc(NC(=O)c2ccnn2C)c(C)c1"
property_name = "viability, T/C"
assay_result = 87.2

[[record]]
molecule = "Cn1ncnc1C1c2n[nH]c(=O)c3cc(F)cc(c23)NC1c1ccc(F)cc1 (stereo not drawn) + CC(CO)NC(=O)c1cc(-c2ccc(Cl)cc2)nn(-c2cnn(C)c2)c1=O"
property_name = "viability, T/C"
assay_result = 114


[ask] Please supply the value of reported viability, T/C for the item CC[C@@]1(O)C(=O)OCc2c1cc1n(c2=O)Cc2cc3c(CN(C)C)c(O)ccc3nc2-1 + Cc1ccccc1N=Nc1ccc(NC(=O)c2ccnn2C)c(C)c1
[reply] 66.8

====

- System: Hs578T complex spheroid growth, percent test/control
- EXPERIMENTAL_DETAILS: Anticancer human tumor Hs578T cell line growth inhibition [AhR]
- CONDITIONS_USED: second compound 0.316 µM; first compound 3.16 µM; stronger effect = lower value
PROPERTY_NAME: viability, T/C (%)
Respond with the bare value in %.

Look over these answered cases.
[[record]]
compound = "O=C(c1cc(Cc2n[nH]c(=O)c3ccccc23)ccc1F)N1CCN(C(=O)C2CC2)CC1 + CC(CO)NC(=O)c1cc(-c2ccc(Cl)cc2)nn(-c2cnn(C)c2)c1=O"
property_name = "viability, T/C"
measurement_units = "%"
assay_result = 98.9

[[record]]
compound = "O=C(C=Cc1cccc(S(=O)(=O)Nc2ccccc2)c1)NO + Cc1cncc(-c2nc(NCCc3c[nH]c4ccccc34)c3ncn(C(C)C)c3n2)c1"
property_name = "viability, T/C"
measurement_units = "%"
assay_result = 44

[[record]]
compound = "COc1cccc2c1C(=O)c1c(O)c3c(c(O)c1C2=O)CC(O)(C(=O)CO)CC3OC1CC(N)C(O)C(C)O1 (configuration not stated) + CC(CO)NC(=O)c1cc(-c2ccc(Cl)cc2)nn(-c2cnn(C)c2)c1=O"
property_name = "viability, T/C"
measurement_units = "%"
assay_result = 2.56

[[record]]
compound = "CC1(C)CCC(CN2CCN(c3ccc(C(=O)NS(=O)(=O)c4ccc(NCC5CCOCC5)c([N+](=O)[O-])c4)c(Oc4cnc5[nH]ccc5c4)c3)CC2)=C(c2ccc(Cl)cc2)C1 + Cc1cncc(-c2nc(NCCc3c[nH]c4ccccc34)c3ncn(C(C)C)c3n2)c1"
property_name = "viability, T/C"
measurement_units = "%"
assay_result = 105

[[record]]
compound = "Nc1ccccc1NC(=O)c1ccc(CNC(=O)OCc2cccnc2)cc1 + CC(CO)NC(=O)c1cc(-c2ccc(Cl)cc2)nn(-c2cnn(C)c2)c1=O"
property_name = "viability, T/C"
measurement_units = "%"
assay_result = 30


[ask] Please supply the value of reported viability, T/C for the item COc1cc(Nc2ncc3c(n2)-c2ccc(Cl)cc2C(c2c(F)cccc2OC)=NC3)ccc1C(=O)O + CC(CO)NC(=O)c1cc(-c2ccc(Cl)cc2)nn(-c2cnn(C)c2)c1=O
[reply] 84.4

[ask] Please supply the value of reported viability, T/C for the item O=C(c1cc(Cc2n[nH]c(=O)c3ccccc23)ccc1F)N1CCN(C(=O)C2CC2)CC1 + Cc1cncc(-c2nc(NCCc3c[nH]c4ccccc34)c3ncn(C(C)C)c3n2)c1
[reply] 114

====

- Test system: Hs578T complex spheroid growth, percent test/control
- EXPERIMENTAL_DETAILS: Anticancer human tumor Hs578T cell line growth inhibition [AhR];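 note: luminescent viability signal as a proxy for spheroid growth; spheroids exposed to agents for one week after three days of growth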
- CONDITIONS_USED: second compound 0.1 µM; first compound 3 µM; stronger effect = lower value
viability, T/C strictly less than 20% = label 1. Otherwise label 0.

[[record]]
compound = "O=C(C=Cn1cnc(-c2cc(C(F)(F)F)cc(C(F)(F)F)c2)n1)NNc1cnccn1 + CC(CO)NC(=O)c1cc(-c2ccc(Cl)cc2)nn(-c2cnn(C)c2)c1=O"
discrete_label = "label 1"

[[record]]
compound = "CCN(c1cc(-c2ccc(CN3CCOCC3)cc2)cc(C(=O)NCc2c(C)cc(C)[nH]c2=O)c1C)C1CCOCC1 + Cc1cncc(-c2nc(NCCc3c[nH]c4ccccc34)c3ncn(C(C)C)c3n2)c1"
discrete_label = "label 0"

[[record]]
compound = "CCN(c1cc(-c2ccc(CN3CCOCC3)cc2)cc(C(=O)NCc2c(C)cc(C)[nH]c2=O)c1C)C1CCOCC1 + CC(CO)NC(=O)c1cc(-c2ccc(Cl)cc2)nn(-c2cnn(C)c2)c1=O"
discrete_label = "label 0"

[[record]]
compound = "CCN(c1cc(-c2ccc(CN3CCOCC3)cc2)cc(C(=O)NCc2c(C)cc(C)[nH]c2=O)c1C)C1CCOCC1 + Cc1ccccc1N=Nc1ccc(NC(=O)c2ccnn2C)c(C)c1"
discrete_label = "label 0"

[[record]]
compound = "O=C(C=Cn1cnc(-c2cc(C(F)(F)F)cc(C(F)(F)F)c2)n1)NNc1cnccn1 + Cc1ccccc1N=Nc1ccc(NC(=O)c2ccnn2C)c(C)c1"
discrete_label = "label 1"


Turning now to a further compound:
[ask] is_below(viability, T/C, 20%) for O=C(C=Cn1cnc(-c2cc(C(F)(F)F)cc(C(F)(F)F)c2)n1)NNc1cnccn1 + Cc1cncc(-c2nc(NCCc3c[nH]c4ccccc34)c3ncn(C(C)C)c3n2)c1 ?
[reply] label 1

====

- System: Hs578T complex spheroid growth, percent test/control
- EXPERIMENTAL_DETAILS: Anticancer human tumor Hs578T cell line growth inhibition [AhR];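 note: luminescent viability signal as a proxy for spheroid growth; spheroids exposed to agents for one week after three days of growth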
- CONDITIONS_USED: curve of first compound; second compound 0.1 µM
// values below are reported pIC50
Quick note: pIC50 values are minus log10 of concentrations in mol/L.

Look over these answered cases.
[[record]]
molecule = "O=C(C=Cn1cnc(-c2cc(C(F)(F)F)cc(C(F)(F)F)c2)n1)NNc1cnccn1 + Cc1cncc(-c2nc(NCCc3c[nH]c4ccccc34)c3ncn(C(C)C)c3n2)c1"
target_entity = "Hs578T complex spheroid growth, percent test/control"
property_name = "pIC50"
assay_result = 6.40

[[record]]
molecule = "NS(=O)(=O)OCC1CC(n2ccc3c(NC4CCc5ccccc54)ncnc32)CC1O (stereo unspecified) + CC(CO)NC(=O)c1cc(-c2ccc(Cl)cc2)nn(-c2cnn(C)c2)c1=O"
target_entity = "Hs578T complex spheroid growth, percent test/control"
property_name = "pIC50"
assay_result = 6.04


[ask] Please supply the value of reported pIC50 for the item CC1COCCN1c1cc(-c2ccnn2C)c2ccnc(-c3ccn[nH]3)c2n1 (stereo unspecified) + CC(CO)NC(=O)c1cc(-c2ccc(Cl)cc2)nn(-c2cnn(C)c2)c1=O
[reply] 6.28

====

- System: Hs578T complex spheroid growth, percent test/control
- EXPERIMENTAL_DETAILS: Anticancer human tumor Hs578T cell line growth inhibition [AhR];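 note: luminescent viability signal as a proxy for spheroid growth; spheroids exposed to agents for one week after three days of growth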
- CONDITIONS_USED: second compound 0.1 µM; first compound 0.316 µM; stronger effect = lower value
PROPERTY_NAME: viability, T/C (%)
Respond with the bare value in %.

[[record]]
compound = "COc1cc(Nc2ncc3c(n2)-c2ccc(Cl)cc2C(c2c(F)cccc2OC)=NC3)ccc1C(=O)O + Cc1cncc(-c2nc(NCCc3c[nH]c4ccccc34)c3ncn(C(C)C)c3n2)c1"
target_entity = "Hs578T complex spheroid growth, percent test/control"
property_name = "viability, T/C"
assay_result = 99.6

[[record]]
compound = "COc1cccc2c1C(=O)c1c(O)c3c(c(O)c1C2=O)CC(O)(C(=O)CO)CC3OC1CC(N)C(O)C(C)O1 (stereo not drawn) + Cc1ccccc1N=Nc1ccc(NC(=O)c2ccnn2C)c(C)c1"
target_entity = "Hs578T complex spheroid growth, percent test/control"
property_name = "viability, T/C"
assay_result = 44.7


Continue with the next compound.
[ask] Please supply the value of reported viability, T/C for the item Nc1ccccc1NC(=O)c1ccc(CNC(=O)OCc2cccnc2)cc1 + Cc1ccccc1N=Nc1ccc(NC(=O)c2ccnn2C)c(C)c1
[reply] 85.2

====

- Tested on: Hs578T complex spheroid growth, percent test/control
- EXPERIMENTAL_DETAILS: Anticancer human tumor Hs578T cell line growth inhibition [AhR]; active means viability on the fitted dose curve at most 10% of control; inactive means the rest;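 note: luminescent viability signal as a proxy for spheroid growth; spheroids exposed to agents for one week after three days of growth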
- CONDITIONS_USED: second compound 10 µM; first compound 0.000949 µM
- Text: Multicellular complex tumor spheroid response to aryl hydrocarbon receptor antagonists in combination with a variety of drugs and investigational agents in selected tumor cell lines […] Compounds. […] If the clinical Cmax for an agent had not been determined, the highest concentration tested was 10 microM (Table 1). […]
Write down the outcome that applies. Available outcomes: 1.0 = active, 0.0 = inactive

Consider the worked cases shown below.
[[record]]
compound = "CCc1c2c(nc3ccc(O)cc13)-c1cc3c(c(=O)n1C2)COC(=O)[C@]3(O)CC + Cc1cncc(-c2nc(NCCc3c[nH]c4ccccc34)c3ncn(C(C)C)c3n2)c1"
discrete_label = 1.0

[[record]]
compound = "CCc1c2c(nc3ccc(O)cc13)-c1cc3c(c(=O)n1C2)COC(=O)[C@]3(O)CC + CC(CO)NC(=O)c1cc(-c2ccc(Cl)cc2)nn(-c2cnn(C)c2)c1=O"
discrete_label = 0.0

[[record]]
compound = "Nc1ncn(C2CC(O)C(CO)S2)c(=O)n1 (centres undefined) + CC(CO)NC(=O)c1cc(-c2ccc(Cl)cc2)nn(-c2cnn(C)c2)c1=O"
discrete_label = 0.0


[ask] Write down the call the test reported for this compound. Item: Nc1ncn(C2CC(O)C(CO)S2)c(=O)n1 (centres undefined) + Cc1ccccc1N=Nc1ccc(NC(=O)c2ccnn2C)c(C)c1
[reply] 0.0

[ask] Write down the call the test reported for this compound. Item: CC(C)CC(NC(=O)C(Cc1ccccc1)NC(=O)c1cnccn1)B(O)O (centres undefined) + CC(CO)NC(=O)c1cc(-c2ccc(Cl)cc2)nn(-c2cnn(C)c2)c1=O
[reply] 0.0
